molecular target: recombinant human DAO (diamine oxidase) (Homo sapiens, UniProt P19801); construct: purchased R&D systems; test: Activity evaluation on recombinant human DAO (Amplex Red/HRP-coupled assay, 1 mM putrescine substrate); type: biochemical; details: 1 mM putrescine substrate, read-out: Inhibitory Activity (IC50, nM) DAO
Sequence (P19801 20-751): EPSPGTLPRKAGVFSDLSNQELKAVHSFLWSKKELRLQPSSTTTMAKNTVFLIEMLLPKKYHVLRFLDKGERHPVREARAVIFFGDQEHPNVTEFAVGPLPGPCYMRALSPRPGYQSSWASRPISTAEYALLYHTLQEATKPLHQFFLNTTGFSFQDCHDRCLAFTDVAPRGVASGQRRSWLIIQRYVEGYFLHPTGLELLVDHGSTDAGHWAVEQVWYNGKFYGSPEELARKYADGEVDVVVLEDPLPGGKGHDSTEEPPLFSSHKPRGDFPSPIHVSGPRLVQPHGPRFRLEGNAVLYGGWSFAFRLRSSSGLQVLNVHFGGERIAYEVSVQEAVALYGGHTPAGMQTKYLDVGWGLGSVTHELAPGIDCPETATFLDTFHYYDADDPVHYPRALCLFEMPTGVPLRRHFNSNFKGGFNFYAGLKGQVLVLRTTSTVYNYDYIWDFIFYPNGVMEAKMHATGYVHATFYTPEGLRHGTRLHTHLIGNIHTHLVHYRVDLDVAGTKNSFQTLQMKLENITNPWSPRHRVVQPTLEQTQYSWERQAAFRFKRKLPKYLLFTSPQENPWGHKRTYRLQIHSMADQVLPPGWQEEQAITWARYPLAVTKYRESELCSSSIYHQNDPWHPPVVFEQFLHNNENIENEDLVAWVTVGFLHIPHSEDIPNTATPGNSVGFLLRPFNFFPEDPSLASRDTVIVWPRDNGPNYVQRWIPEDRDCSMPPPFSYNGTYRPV
Structures can show the parent of a compound that is named as a salt.
assay.readout: IC50 (nM)

Use these answered entries as a reference point.
Cc1cc(-c2ccc(N3CCCC3=O)cc2)cnc1-n1cnn(CC(CN)=C(F)F)c1=O [Example 230, Trifluoroacetate]: 24000
NCC(Cn1ncn(-c2cccc(-c3cccc(N4CCNCC4)c3)n2)c1=O)=C(F)F [Example 216, Ditrifluoroacetate]: 63
CN(C)c1ccc(-c2ccccc2Cn2cnn(CC(CN)=C(F)F)c2=O)cn1 [Example 281, Trifluoroacetate]: 4860

a = CCn1cc(-c2cccc(-c3cnc(-n4cnn(CC(CN)=C(F)F)c4=O)c(C)c3)c2)cn1 [Example 291, Trifluoroacetate]
b = NCC(Cn1ncn(Cc2cc3ccc(-c4ccc5c(c4)OCO5)cc3s2)c1=O)=C(F)F [Example 201, Trifluoroacetate]
Challenge: Please indicate which entry, a or b , has the lower recorded IC50 value. Provide the label of your selected option as the answer.
Response given: a
(a: 6160 nM, b: 27000 nM)
